# target.under.test: Serine/threonine-protein kinase Sgk1 (Homo sapiens)
# condition.details: at 0.1 µM
# Description: GSK_PKIS: SGK1 mean inhibition at 0.1 uM [Nanosyn]
Property: inhibition; scope: individual compounds

The examples below pair each entry with its known result.
{"smiles.representation": "CN(C)CCNC(=O)Nc1ccc(N(C)c2ccnc(Nc3ccc(CS(C)(=O)=O)cc3)n2)cc1", "inhibition": "3.14%"}
{"smiles.representation": "COc1ccccc1-c1cc(/C=C2\\C(=O)Nc3ncc(Br)cc32)cc(Br)c1O", "inhibition": "4.47%"}

Q: Item CNC(=O)c1cncc(/C=C/c2ccccc2C)c1 has what recorded inhibition?
Result: 3.1%

Q: Item COc1cc2c(cc1Nc1nc(Nc3cccc(F)c3C(N)=O)c3cc[nH]c3n1)N(C(=O)CN1CCN(C(C)C)CC1)CC2 has what recorded inhibition?
Result: -0.48%

Q: Item NS(=O)(=O)c1ccc(N/N=C2\C(=O)Nc3cccc(CCc4ccncc4)c32)cc1 has what recorded inhibition?
Result: 1.76%

Q: Item CNC(=O)c1ncccc1Nc1nc(Nc2cc3c(cc2OC)CCCN3C(=O)CN(C)C)nc2[nH]ccc12 has what recorded inhibition?
Result: 2.04%

Q: Item Cc1nnc(-c2cccc(-c3ccc(C(=O)NCC4CC4)cc3)c2)o1 has what recorded inhibition?
Result: 4.47%

Q: Item CS(=O)(=O)CCNCc1ccc(-c2ccc3ncnc(Nc4ccc(OCc5ccccc5)cc4)c3c2)o1 has what recorded inhibition?
Result: 5.01%

Q: Item CS(=O)(=O)CCNCc1ccoc1-c1ccc2ncnc(Nc3ccc(OCc4ccccc4)cc3)c2c1 has what recorded inhibition?
Result: 2.02%

====

# target.under.test: RAC-beta serine/threonine-protein kinase (Homo sapiens) (UniProt P31751)
# Sequence (P31751 whole entry): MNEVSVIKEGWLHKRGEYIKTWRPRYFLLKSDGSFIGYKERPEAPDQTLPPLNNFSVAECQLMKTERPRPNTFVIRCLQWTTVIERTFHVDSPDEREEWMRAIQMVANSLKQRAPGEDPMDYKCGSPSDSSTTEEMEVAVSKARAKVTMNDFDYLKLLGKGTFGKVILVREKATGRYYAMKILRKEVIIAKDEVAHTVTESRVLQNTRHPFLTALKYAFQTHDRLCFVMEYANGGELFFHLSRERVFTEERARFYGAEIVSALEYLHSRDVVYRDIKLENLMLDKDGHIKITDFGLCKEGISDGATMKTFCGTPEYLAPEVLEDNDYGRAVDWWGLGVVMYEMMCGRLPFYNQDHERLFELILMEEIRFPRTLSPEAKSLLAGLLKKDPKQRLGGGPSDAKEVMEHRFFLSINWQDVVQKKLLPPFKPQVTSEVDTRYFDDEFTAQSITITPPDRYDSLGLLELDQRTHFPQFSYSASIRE
# condition.details: at 1 µM
# Description: GSK_PKIS: AKT2 mean inhibition at 1 uM [Nanosyn]
Property: inhibition; scope: individual compounds
# output: bare number, implied unit %

The examples below pair each entry with its known result.
{"compound": "CC1(C)CC(n2cnc(-c3ccc(F)cc3)c2-c2ccnc(N)n2)CC(C)(C)N1", "inhibition [%]": 0.6}
{"compound": "CCS(=O)(=O)c1ccc(OC)c(Nc2ncc(-c3cccc(C(C)=O)c3)o2)c1", "inhibition [%]": 2.41}
{"compound": "COC(=O)Nc1nc2cc(Oc3ccc(NC(=O)Nc4ccccc4)cc3)ccc2[nH]1", "inhibition [%]": 1.16}
{"compound": "CCN1CCC(C(=O)Nc2n[nH]c3nnc(-c4cccc(F)c4F)cc23)CC1", "inhibition [%]": -0.35}
{"compound": "Cc1ccc(-c2cc3c(NC(=O)C4CC4)ncnc3o2)cc1", "inhibition [%]": 1.7}
{"compound": "O=C1Nc2ccccc2/C1=C1\\CCc2cc(O)ccc21", "inhibition [%]": 4.03}
{"compound": "CC1=C(C(=O)Nc2ccc3[nH]ncc3c2)C(c2ccc(F)cc2)N=C(c2ccc(C(F)(F)F)nc2)N1 (stereo not given)", "inhibition [%]": 1.43}
{"compound": "Cc1c2ccc(N(C)c3ccnc(Nc4cccc(S(N)(=O)=O)c4)n3)cc2nn1C", "inhibition [%]": -3.49}

Q: Item COc1cc(Nc2ncc(-c3ccccc3)o2)cc(OC)c1 has what recorded inhibition?
Result: 2.08

Q: Item N#Cc1ccc2c(-c3ccnc(NC4CC4)n3)c(-c3ccc(F)cc3)nn2c1 has what recorded inhibition?
Result: 0.78

====

# target.under.test: Ephrin type-B receptor 2 (Homo sapiens);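 also: reported as mean inhibition of EPHB2, from the GSK PKIS dataset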
# condition.details: at 0.1 µM
Property: inhibition; scope: individual molecules
# output: bare number, implied unit %

The examples below pair each entry with its known result.
{"smiles.representation": "NS(=O)(=O)c1cccc(N/C=C2\\C(=O)Nc3ccccc32)c1", "scale.unit": "%", "inhibition": 9.06}
{"smiles.representation": "COc1c(C(N)=O)cc(-c2ccc(Cl)cc2)cc1-c1ccc(S(N)(=O)=O)cc1", "scale.unit": "%", "inhibition": 8.67}
{"smiles.representation": "N#Cc1cccc(Nc2ncc(-c3ccccc3)o2)c1", "scale.unit": "%", "inhibition": 2.84}
{"smiles.representation": "NC(=O)c1ccc2c(-c3ccnc(NCCCO)n3)c(-c3ccc(F)cc3)nn2c1", "scale.unit": "%", "inhibition": 9.21}

From here, focus on the item given below.
Q: Item O=C(O[C@H]1CN[C@H](C#Cc2cc3ncnc(Nc4ccc5c(ccn5Cc5cc(F)ccc5F)c4)c3s2)C1)N1CCOCC1 has what recorded inhibition?
Result: 5.25
